Data origin: ChEMBL document CHEMBL3352165

pIC50: −log10 of the molar value.
Parameter pIC50, tested on Mast/stem cell growth factor receptor Kit (Homo sapiens), listed per item.
Sequence (P10721 whole entry): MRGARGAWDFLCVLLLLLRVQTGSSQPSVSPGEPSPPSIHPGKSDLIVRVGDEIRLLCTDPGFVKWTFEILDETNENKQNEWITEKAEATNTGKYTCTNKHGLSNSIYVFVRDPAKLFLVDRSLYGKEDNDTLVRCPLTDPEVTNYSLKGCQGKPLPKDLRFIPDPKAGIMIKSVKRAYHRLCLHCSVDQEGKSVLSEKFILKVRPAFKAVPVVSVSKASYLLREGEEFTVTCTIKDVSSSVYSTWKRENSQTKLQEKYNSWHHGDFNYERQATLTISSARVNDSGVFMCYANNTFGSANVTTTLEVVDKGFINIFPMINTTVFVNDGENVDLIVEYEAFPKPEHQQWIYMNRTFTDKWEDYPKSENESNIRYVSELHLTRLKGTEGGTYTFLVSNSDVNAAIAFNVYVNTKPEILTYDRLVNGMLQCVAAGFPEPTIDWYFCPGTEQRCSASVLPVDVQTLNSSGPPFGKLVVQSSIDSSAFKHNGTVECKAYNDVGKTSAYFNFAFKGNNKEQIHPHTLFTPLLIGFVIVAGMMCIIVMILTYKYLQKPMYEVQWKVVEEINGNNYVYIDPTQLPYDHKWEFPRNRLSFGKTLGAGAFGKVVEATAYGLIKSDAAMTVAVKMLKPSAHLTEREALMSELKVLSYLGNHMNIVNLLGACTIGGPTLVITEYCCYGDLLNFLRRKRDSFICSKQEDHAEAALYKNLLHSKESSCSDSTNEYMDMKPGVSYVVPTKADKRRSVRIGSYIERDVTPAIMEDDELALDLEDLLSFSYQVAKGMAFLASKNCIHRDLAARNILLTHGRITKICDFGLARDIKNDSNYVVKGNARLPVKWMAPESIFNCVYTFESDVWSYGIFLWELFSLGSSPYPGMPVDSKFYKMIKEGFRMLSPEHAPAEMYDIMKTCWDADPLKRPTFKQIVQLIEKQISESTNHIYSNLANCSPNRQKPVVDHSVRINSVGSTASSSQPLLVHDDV

Give pIC50 only, for CN(C)[C@H](CS(C)(=O)=O)c1ccc(-c2ccc3ncnc(Nc4ccc(OCc5cccc(F)c5)c(Cl)c4)c3c2)o1 , using Mast/stem cell growth factor receptor Kit (Homo sapiens) data.
< 3.70

Give pIC50 only, for CNC(CS(C)(=O)=O)c1ccc(-c2ccc3ncnc(Nc4ccc(OCc5cccc(F)c5)c(Cl)c4)c3c2)o1 (racemic) , using Mast/stem cell growth factor receptor Kit (Homo sapiens) data.
< 3.70

Give pIC50 only, for CCCCOC(=O)N[C@H](CS(C)(=O)=O)c1ccc(-c2ccc3ncnc(Nc4ccc(OCc5cccc(F)c5)c(Cl)c4)c3c2)o1 , using Mast/stem cell growth factor receptor Kit (Homo sapiens) data.
< 3.70

Give pIC50 only, for CC(C)NC(CS(C)(=O)=O)c1ccc(-c2ccc3ncnc(Nc4ccc(OCc5cccc(F)c5)c(Cl)c4)c3c2)o1 (racemic) , using Mast/stem cell growth factor receptor Kit (Homo sapiens) data.
< 3.70

# input for lookup
Give pIC50 only, for CN(C)[C@@H](CS(C)(=O)=O)c1ccc(-c2ccc3ncnc(Nc4ccc(OCc5cccc(F)c5)c(Cl)c4)c3c2)o1 , using Mast/stem cell growth factor receptor Kit (Homo sapiens) data.
< 3.70
